- Test system: rodent lifetime carcinogenesis bioassay, tumor incidence TD50
- assay-summary: carcinogenic potency in animals, long-term in vivo studies, CPDB compilation (AID 1745844)
- condition-parameters: rat; strain F344/DuCrj; males; in drinking water; site: liver; lesion: several types; types named in the paper; dosed 104 weeks; study length 108 weeks
test-readout: TD50 (mg/kg/day)
Numbers only, in mg/kg/day.

IN: Dear colleague, please send me the reported TD50 for `CC(=O)OC/C=C(C)/C=C/C=C(C)/C=C/C1=C(C)CCCC1(C)C` when you can.
OUT: 3670

====

- Test system: rodent lifetime carcinogenesis bioassay, tumor incidence TD50
- assay-summary: carcinogenic potency in animals, long-term in vivo studies, CPDB compilation (AID 1745844)
- condition-parameters: hamster; strain Syrian Golden; males; by gavage; site: spleen; lesion: hemangiosarcoma; dosed 43 weeks; study length 75 weeks
test-readout: TD50

IN: Answer with the recorded TD50 of `CC(=O)CN(N=O)C(=O)NCCCl` only.
OUT: 0.216 mg/kg/day
